This section presents compounds with their documented selectivity ratio values.
# Experiment Notes: Ratio of IC50 for dark toxicity to IC50 for phototoxicity in mouse B16F10 cells by cell counting kit-8 based spectrophotometric analysis
# Parameters: species or system B16-F10
# Measurement Parameters: B16F10 cells, read-out: Ratio IC50
Answer with a number only.

Below are worked cases with known answers.
{"columns": ["Structure Smiles String", "selectivity ratio"],
 "data": [
  ["CCC1=C(C)c2cc3[nH]c(cc4nc(c(C(=O)OC)c5[nH]c(cc1n2)c(C)c5C(=O)OC)C(CCC(=O)N[C@@H](CC(=O)O)C(=O)O)=C4C)[C@@]1(C)C3=CC=C(C(=O)OC)[C@H]1C(=O)OC", 118],
  ["C=Cc1c(C)c2cc3nc(c(C(=O)OC)c4[nH]c(cc5nc(cc1[nH]2)C(C)=C5CC)c(C)c4C(=O)OC)[C@@H](CCC(=O)O)[C@@H]3C", 52.2],
  ["CCC1=C(C)c2cc3[nH]c(cc4nc(c(C(=O)OC)c5[nH]c(cc1n2)c(C)c5C(=O)OC)C(CCC(=O)O)=C4C)[C@@]1(C)C3=CC=C(C(=O)OC)[C@H]1C(=O)OC", 16.7],
  ["C=Cc1c(C)c2cc3nc(c(C(=O)OC)c4[nH]c(cc5nc(cc1[nH]2)C(C)=C5CC)c(C)c4C(=O)OC)[C@@H](CCC(=O)N[C@@H](CCC(=O)O)C(=O)O)[C@@H]3C", 233]
]}

Next, consider the following compound.
Given item CCC1=C(C)c2cc3[nH]c(cc4nc(c(C(=O)OC)c5[nH]c(cc1n2)c(C)c5C(=O)OC)C(CCC(=O)N[C@@H](CCC(=O)O)C(=O)O)=C4C)[C@@]1(C)C3=CC=C(C(=O)OC)[C@H]1C(=O)OC , the value recorded as its selectivity ratio is 55.3

----------
# Experiment Notes: Phototoxicity in mouse B16F10 cells assessed as cell viability after 24 hrs followed by irradiation with diode laser at 10 J/cm'2 measured after 24 hrs by MTT assay
# Format: functional, cell-based, B16-F10
# Measurement Parameters: b16-f10
Measured Attribute: IC50
Just so you know, I need the unit written after the number.

Given item VERTEPORFIN , the value recorded as its IC50 is 1070 nM

----------
# Experiment Notes: Aqueous solubility of the compound in PBS buffer at pH 7.4
# Assay type: physicochemical
Measured Attribute: solubility (µM)
Supply the numeric figure in µM, leaving out any unit text.

Given item C=Cc1c(C)c2cc3nc(c(C(=O)OC)c4[nH]c(cc5nc(cc1[nH]2)C(C)=C5CC)c(C)c4C(=O)OC)[C@@H](CCC(=O)N[C@@H](CC(=O)O)C(=O)O)[C@@H]3C , the value recorded as its solubility is 41.7

----------
# System: A-375
# Experiment Notes: Dark toxicity in human A375 cells assessed as cell viability after 48 hrs by cell counting kit-8 based spectrophotometric analysis
# Measurement Parameters: a-375
Measured Attribute: IC50

Given item VERTEPORFIN , the value recorded as its IC50 is 36.3 µM

----------
# Experiment Notes: Phototoxicity in mouse B16F10 cells assessed as cell viability after 24 hrs followed by irradiation with diode laser at 10 J/cm'2 measured after 24 hrs by cell counting kit-8 based spectrophotometric analysis
# Format: functional, B16-F10
# Measurement Parameters: b16-f10
Measured Attribute: IC50

Given item VERTEPORFIN , the value recorded as its IC50 is 1200 nM

----------
# Experiment Notes: Ratio of IC50 for test compound to IC50 for verteporfin for dark toxicity in human A375 cells by cell counting kit-8 based spectrophotometric analysis
# Design: species or system A-375
# Measurement Parameters: read-out: Ratio IC50
Measured Attribute: selectivity ratio

Given item C=Cc1c(C)c2cc3nc(c(C(=O)OC)c4[nH]c(cc5nc(cc1[nH]2)C(C)=C5CC)c(C)c4C(=O)OC)[C@@H](CCC(=O)N[C@@H](CC(=O)O)C(=O)O)[C@@H]3C , the value recorded as its selectivity ratio is > 8.3

----------
# Experiment Notes: Ratio of IC50 for test compound to IC50 for verteporfin for dark toxicity in mouse B16F10 cells by cell counting kit-8 based spectrophotometric analysis
# Design: species or system B16-F10
# Measurement Parameters: read-out: Ratio IC50
Measured Attribute: selectivity ratio

Given item C=Cc1c(C)c2cc3nc(c(C(=O)OC)c4[nH]c(cc5nc(cc1[nH]2)C(C)=C5CC)c(C)c4C(=O)OC)[C@@H](CCC(=O)N[C@@H](CC(=O)O)C(=O)O)[C@@H]3C , the value recorded as its selectivity ratio is > 8.3

----------
# Experiment Notes: Dark toxicity in mouse B16F10 cells assessed as cell viability after 48 hrs by cell counting kit-8 based spectrophotometric analysis
# Parameters: species or system B16-F10
# Measurement Parameters: b16-f10
Measured Attribute: pIC50
Reminder that pIC50 is minus the log10 of a molar concentration.

Given item VERTEPORFIN , the value recorded as its pIC50 is 4.60

----------
# Experiment Notes: Dark toxicity in human A375 cells assessed as cell viability after 48 hrs by cell counting kit-8 based spectrophotometric analysis
# Parameters: species or system A-375
# Measurement Parameters: human, A375 cells
Measured Attribute: IC50 at 48 h (µM)
Supply the numeric figure in µM, leaving out any unit text.

Below are worked cases with known answers.
{"columns": ["Structure Smiles String", "IC50 at 48 h [µM]"],
 "data": [
  ["C=Cc1c(C)c2cc3nc(c(C(=O)OC)c4[nH]c(cc5nc(cc1[nH]2)C(C)=C5CC)c(C)c4C(=O)OC)[C@@H](CCC(=O)O)[C@@H]3C", 31.3],
  ["CCC1=C(C)c2cc3[nH]c(cc4nc(c(C(=O)OC)c5[nH]c(cc1n2)c(C)c5C(=O)OC)C(CCC(=O)O)=C4C)[C@@]1(C)C3=CC=C(C(=O)OC)[C@H]1C(=O)OC", 22.8]
]}

Next, consider the following compound.
Given item CCC1=C(C)c2cc3[nH]c(cc4nc(c(C(=O)OC)c5[nH]c(cc1n2)c(C)c5C(=O)OC)C(CCC(=O)N[C@@H](CCC(=O)O)C(=O)O)=C4C)[C@@]1(C)C3=CC=C(C(=O)OC)[C@H]1C(=O)OC , the value recorded as its IC50 at 48 h is 286

----------
# Experiment Notes: Ratio of IC50 for dark toxicity to IC50 for phototoxicity in human A375 cells by CCK-8 assay
Measured Attribute: selectivity ratio

Given item C=Cc1c(C)c2cc3nc(c(C(=O)OC)c4[nH]c(cc5nc(cc1[nH]2)C(C)=C5CC)c(C)c4C(=O)OC)[C@@H](CCC(=O)N[C@@H](CC(=O)O)C(=O)O)[C@@H]3C , the value recorded as its selectivity ratio is > 306

----------
# Experiment Notes: Dark toxicity in mouse B16F10 cells assessed as cell viability after 48 hrs by MTT assay
# Format: cell-based, B16-F10
# Measurement Parameters: b16-f10
Measured Attribute: IC50 (µM)
Supply the numeric figure in µM, leaving out any unit text.

Given item VERTEPORFIN , the value recorded as its IC50 is 25

----------
# Experiment Notes: Ratio of IC50 for dark toxicity to IC50 for phototoxicity in human A375 cells
# Format: cell-based, A-375
# Measurement Parameters: A375 cells, read-out: Ratio IC50
Measured Attribute: selectivity ratio
Answer with a number only.

Below are worked cases with known answers.
{"columns": ["Structure Smiles String", "selectivity ratio"],
 "data": [
  ["CCC1=C(C)c2cc3[nH]c(cc4nc(c(C(=O)OC)c5[nH]c(cc1n2)c(C)c5C(=O)OC)C(CCC(=O)N[C@@H](CCC(=O)O)C(=O)O)=C4C)[C@@]1(C)C3=CC=C(C(=O)OC)[C@H]1C(=O)OC", 40.3],
  ["CCC1=C(C)c2cc3[nH]c(cc4nc(c(C(=O)OC)c5[nH]c(cc1n2)c(C)c5C(=O)OC)C(CCC(=O)O)=C4C)[C@@]1(C)C3=CC=C(C(=O)OC)[C@H]1C(=O)OC", 15.5]
]}

Given item C=Cc1c(C)c2cc3nc(c(C(=O)OC)c4[nH]c(cc5nc(cc1[nH]2)C(C)=C5CC)c(C)c4C(=O)OC)[C@@H](CCC(=O)O)[C@@H]3C , the value recorded as its selectivity ratio is 60.2

----------
# Experiment Notes: Dark toxicity in mouse B16F10 cells assessed as cell viability after 48 hrs by MTT assay
# Assay type: cell-based, B16-F10
# Measurement Parameters: mouse, B16F10 cells
Measured Attribute: IC50 at 48 h

Given item C=Cc1c(C)c2cc3nc(c(C(=O)OC)c4[nH]c(cc5nc(cc1[nH]2)C(C)=C5CC)c(C)c4C(=O)OC)[C@@H](CCC(=O)N[C@@H](CC(=O)O)C(=O)O)[C@@H]3C , the value recorded as its IC50 at 48 h is > 300 µM

----------
# Experiment Notes: Dark toxicity in mouse B16F10 cells assessed as cell viability after 48 hrs by cell counting kit-8 based spectrophotometric analysis
# Parameters: species or system B16-F10
# Measurement Parameters: mouse, B16F10 cells
This section presents compounds with their documented IC50 at 48 h values.
Supply the numeric figure in µM, leaving out any unit text.

{"columns": ["Structure Smiles String", "Unit Descriptor", "IC50 at 48 h"],
 "data": [
  ["CCC1=C(C)c2cc3[nH]c(cc4nc(c(C(=O)OC)c5[nH]c(cc1n2)c(C)c5C(=O)OC)C(CCC(=O)N[C@@H](CCC(=O)O)C(=O)O)=C4C)[C@@]1(C)C3=CC=C(C(=O)OC)[C@H]1C(=O)OC", "µM", 224]
]}

Next, consider the following compound.
Given item C=Cc1c(C)c2cc3nc(c(C(=O)OC)c4[nH]c(cc5nc(cc1[nH]2)C(C)=C5CC)c(C)c4C(=O)OC)[C@@H](CCC(=O)N[C@@H](CCC(=O)O)C(=O)O)[C@@H]3C , the value recorded as its IC50 at 48 h is 284

All figures here come from ChEMBL document CHEMBL3822438.
